Sourced from the supplement of paper PMC10646978

Listed here: items and their measured NF-kB reporter.
Test system: RAW-Dual (murine macrophage reporter line)
Experiment: NF-kB reporter (SEAP) activity fold change vs agonist alone; higher = enhanced NF-kB activity
Conditions: modulator concentration 10 µM; agonist: LPS 0.1 ug/mL

| molecule | NF-kB reporter |
| --- | --- |
| O=C(O)/C=C/c1ccc(Cn2ccnc2)cc1 | 0.873 |
| COc1cccc(N2CC(C(=O)NC3CCN(c4nccn5c(C)nnc45)CC3)CC2=O)c1 (stereo unspecified) | 1.06 |

Entry CCOc1nc2cccc(C(=O)OC(C)OC(=O)OC3CCCCC3)c2n1Cc1ccc(-c2ccccc2-c2nnn[nH]2)cc1 (stereo unspecified) , RAW-Dual (murine macrophage reporter line) data, NF-kB reporter value: 0.762

Entry "Cl.N=C1CCCN1Cc1[nH]c(=O)[nH]c(=O)c1Cl" , RAW-Dual (murine macrophage reporter line) data, NF-kB reporter value: 0.379

Entry "CC(C)=CCCC(C)=CC=NNC(=S)Nc1ccc(C)cc1" , RAW-Dual (murine macrophage reporter line) data, NF-kB reporter value: 1.12

Entry "Cc1onc(-c2ccccc2)c1-c1ccc(S(N)(=O)=O)cc1" , RAW-Dual (murine macrophage reporter line) data, NF-kB reporter value: 1.08

Entry "Cc1ccc(CSCCNC(=O)CN(c2cccc(C)c2)S(C)(=O)=O)cc1" , RAW-Dual (murine macrophage reporter line) data, NF-kB reporter value: 1.01

Entry "O=C(NC(=S)c1c(-c2ccccc2)cc2ccccn12)c1ccccc1" , RAW-Dual (murine macrophage reporter line) data, NF-kB reporter value: 0.786

Entry "CCN(CC)Cc1cc(Nc2ccnc3cc(Cl)ccc23)ccc1O.Cl.Cl.O.O" , RAW-Dual (murine macrophage reporter line) data, NF-kB reporter value: 0.671

Entry "COc1cc(C=NNC(=O)CSc2ccccn2)cc(Cl)c1O" , RAW-Dual (murine macrophage reporter line) data, NF-kB reporter value: 1.02

Entry "O=C(NCCNC(=O)c1ccccc1Cl)c1ccc(NC(=O)C2CC2)cc1" , RAW-Dual (murine macrophage reporter line) data, NF-kB reporter value: 1.01

###

Listed here: items and their measured IRF reporter.
Test system: RAW-Dual (murine macrophage reporter line)
Assay: IRF reporter (Lucia luciferase) activity fold change vs agonist alone; higher = enhanced IRF activity
Settings: modulator concentration 10 µM; agonist: 3'3'-cGAMP 10 ug/mL
Answer using only a numeral; do not append any unit.

Observe how each entry below is paired with its result.
| compound | IRF reporter |
| --- | --- |
| Cc1cc(I)cc2c1NC(c1cccc([N+](=O)[O-])c1)C1CC=CC21 (stereo unspecified) | 0.497 |
| CC(=O)N=C1NC(=O)C(=Cc2ccc(C)o2)S1 | 0.817 |

Lab note: "Cc1ccc(O)c([C@H](CCN(C(C)C)C(C)C)c2ccccc2)c1.O=C(O)[C@H](O)[C@@H](O)C(=O)O" gave IRF reporter of 0.656

Lab note: "O=C(C=Cc1cccc([N+](=O)[O-])c1)NCCc1ccccc1" gave IRF reporter of 0.963

Lab note: CC1(C)CCCC2=C1CC1C(=O)NC(=O)C1C2 (stereo unspecified) gave IRF reporter of 0.953

Lab note: "CC(O)(P(=O)(O)O)P(=O)(O)O" gave IRF reporter of 0.956

Lab note: "CC(NCCc1c[nH]c2ccccc12)=C1C(=O)c2ccccc2C1=O" gave IRF reporter of 0.425

Lab note: CCOC(=O)c1c(N2C(=O)C3C4C=CC(O4)C3C2=O)sc2c1CCCC2 (stereo unspecified) gave IRF reporter of 0.775
